Listed here: items and their measured Activity.
tested on: HaCaT; assay: Antimitotic activity against human HaCaT cells assessed as mitotic index at 100 uM after 20 hrs; assay type: functional
Field: numeric (%). Do not append units.

Use the examples below as a reference point.
COC(=O)c1cc(CCc2cccc(OC)c2)ccc1O ... 36
COC(=O)c1cc(CCc2cc(OC)c(C(C)(C)C)cc2C(C)=O)ccc1O ... 4.4
COC(=O)c1cc(CCc2cccc(OC)c2OC)ccc1O ... 3.7

Consider the compound shown here: COC(=O)c1cc(CCc2ccc3c(c2)OCO3)ccc1O What is its recorded Activity?
2.9

Consider the compound shown here: COC(=O)c1cc(CCc2ccc(OC)cc2OC)ccc1O What is its recorded Activity?
7.2

Every entry's value here was drawn from ChEMBL document CHEMBL1156620.
